- Condition info: human, in vivo, iv, 6 mg/kg

- Smiles: "CCCCCCCCCC(=O)N[C@@H](Cc1c[nH]c2ccccc12)C(=O)N[C@H](CC(N)=O)C(=O)N[C@@H](CC(=O)O)C(=O)N[C@@H]1C(=O)NCC(=O)N[C@@H](CCCN)C(=O)N[C@@H](CC(=O)O)C(=O)N[C@H](C)C(=O)N[C@@H](CC(=O)O)C(=O)NCC(=O)N[C@H](CO)C(=O)N[C@@H]([C@H](C)CC(=O)O)C(=O)N[C@@H](CC(=O)c2ccccc2N)C(=O)O[C@@H]1C"
  Unit label: "µg·h/mL"
  AUC(0-t): 262

----------
- Condition info: human, in vivo, iv, 6 mg/kg

- Smiles: "CCCCCCCCCC(=O)N[C@@H](Cc1c[nH]c2ccccc12)C(=O)N[C@H](CC(N)=O)C(=O)N[C@@H](CC(=O)O)C(=O)N[C@@H]1C(=O)NCC(=O)N[C@@H](CCCN)C(=O)N[C@@H](CC(=O)O)C(=O)N[C@H](C)C(=O)N[C@@H](CC(=O)O)C(=O)NCC(=O)N[C@H](CO)C(=O)N[C@@H]([C@H](C)CC(=O)O)C(=O)N[C@@H](CC(=O)c2ccccc2N)C(=O)O[C@@H]1C"
  Cmax [ng/mL]: 25500

----------
- Condition info: human, in vivo, iv, 6 mg/kg
Attribute measured: half-life (h)

- Smiles: "CCCCCCCCCC(=O)N[C@@H](Cc1c[nH]c2ccccc12)C(=O)N[C@H](CC(N)=O)C(=O)N[C@@H](CC(=O)O)C(=O)N[C@@H]1C(=O)NCC(=O)N[C@@H](CCCN)C(=O)N[C@@H](CC(=O)O)C(=O)N[C@H](C)C(=O)N[C@@H](CC(=O)O)C(=O)NCC(=O)N[C@H](CO)C(=O)N[C@@H]([C@H](C)CC(=O)O)C(=O)N[C@@H](CC(=O)c2ccccc2N)C(=O)O[C@@H]1C"
  Unit label: "h"
  Val: 6.2
